FYI, the data here is from the supplement of paper PMC6555819.

system: PXR homodimer (NR concentration 270 nM); test: PBM binding z-score (relative to random genomic background probes); higher = stronger binding; sequences stand for … in GC…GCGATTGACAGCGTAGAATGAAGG
So basically: PBM binding z-score at -0.1 or higher? That is true (1). Lower than -0.1? That is false (0).

Record excerpt, results attached:
Qu. Does the reported PBM binding z-score for CGTCAAAGTTCCAGGTAACGTAACAGAAAGCAGC fall at or above the -0.1 mark?
Ans. false (0)

Qu. Does the reported PBM binding z-score for CATACAGGGTCAGCTAGACCAGAGTAGGGACGGC fall at or above the -0.1 mark?
Ans. false (0)

Qu. Does the reported PBM binding z-score for TCTCGGAGGACACGACAGGTCAGAGCTCGACATC fall at or above the -0.1 mark?
Ans. false (0)

New cases:
Qu. Does the reported PBM binding z-score for CCTACTGGGCCAACGTCATTGATCAGTCAAAGCA fall at or above the -0.1 mark?
Ans. false (0)

Qu. Does the reported PBM binding z-score for AGAACGAGGGCAATGAGTTGATTGCACGGGTGGC fall at or above the -0.1 mark?
Ans. true (1)
